Target: SIRT6 (Homo sapiens, UniProt Q8N6T7)
Sequence (Q8N6T7 whole entry): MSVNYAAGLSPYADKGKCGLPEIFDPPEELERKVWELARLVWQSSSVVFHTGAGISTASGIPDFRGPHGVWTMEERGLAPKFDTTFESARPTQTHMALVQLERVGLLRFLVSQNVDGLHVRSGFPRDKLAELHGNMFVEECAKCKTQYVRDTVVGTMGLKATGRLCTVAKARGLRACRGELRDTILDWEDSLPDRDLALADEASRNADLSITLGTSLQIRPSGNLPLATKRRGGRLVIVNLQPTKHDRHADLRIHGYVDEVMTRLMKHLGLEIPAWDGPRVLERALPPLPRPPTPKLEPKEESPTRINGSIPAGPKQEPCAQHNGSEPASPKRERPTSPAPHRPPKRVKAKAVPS
Test: SIRT6 deacetylation of H3K9ac peptide, fold-activation versus activator concentration
Settings: SIRT6 1 μM, H3K9ac peptide 20 μM, 0.5 mM NAD+; sigmoidal curve fit
Parameter: pEC50. Scope: all listed entries.
FYI, pEC50 means -log10 of a concentration in mol per litre.

CCCCC/C=C\C/C=C\CCCCCCCC(=O)NCC(=O)O [N-Linoleoylglycine, linoleoyl-glycine, reference compound] | 4.06
CCCCCCCC/C=C\CCCCCCCC(=O)OCC(O)COP(=O)(O)O (stereo not shown) [Lysophosphatidic acid, oleoyl-lysophosphatidic acid, reference compound] | 4.60
O=C(O)c1ccc2c(c1)C(=O)N(c1ccc(NC(=O)c3ccc(Cl)cc3Cl)c(Cl)c1)C2=O | 4.01

Consider the additional compound presented here.
Param item: C/C(=C\c1ccc(C(=O)O)cc1)c1ccc2c(c1)C(C)(C)CCC2(C)C [TTNPB, arotinoid acid, reference compound] ; param system: SIRT6 (Homo sapiens, UniProt Q8N6T7); output pEC50: 4.28

###

Molecular target: SIRT6 (Homo sapiens, UniProt Q8N6T7)
Experiment: Small molecule SIRT6 activator screen (H3K9ac peptide deacetylation, HPLC)
Format: biochemical
Conditions: compound 100 μM; SIRT6 1 μM; H3K9ac peptide 20 μM; 0.5 mM NAD+
Parameter: F.A. (fold-activation of SIRT6 relative to DMSO control). Scope: all listed entries.
Response body: numeric value in fold, unit text excluded.

Sample records with F.A. (fold-activation of SIRT6 relative to DMSO control):
CCCCCCCCCCCCCC(=O)O [myristic acid] | 3.7
CCCCCCCC/C=C\C/C=C\C/C=C\CCCC(=O)O [Mead acid (20:3 n-9)] | 16
CCCCCCCCCCCCCCC(F)C(=O)O (stereo not drawn) [2-Fluoropalmitic acid] | 25
CCCCC/C=C\C/C=C\C/C=C\C/C=C\CCCC(=O)O [Arachidonic acid (20:4 n-6)] | 15
CCCCC/C=C\C/C=C\CCCCCCCC(=O)NCC(=O)O [N-Linoleoylglycine, linoleoyl-glycine, reference compound] | 29

Consider the additional compound presented here.
Param item: O=C(O)c1ccc2c(c1)C(=O)N(c1ccc(NC(=O)c3ccc(Cl)cc3Cl)c(Cl)c1)C2=O [CL-4] ; param system: SIRT6 (Homo sapiens, UniProt Q8N6T7); output F.A. (fold-activation of SIRT6 relative to DMSO control): 18
